# targetOfAssay: T1, SARS-CoV-2 Receptor Binding Domain (RBD) protein (SARS-CoV-2, UniProt P0DTC2 319-541)
# T1 construct: also called Sars-Cov-2 (COV2)
# testSummary: SPR (Carterra LSA); scFv captured by anti-V5, RBD as analyte
koff reference
measuredAttribute: koff (s⁻¹)

COVID19_P01_B06 (scFv, V domains shown) VH: QVQLVQSGAEVKKPGSSVKVSCKASGYTFSAYYMHWVRQAPGQGLEWMGGITPLFGTPSYAQKFQGRVTITADESTSTAYMELSSLRSEDTAVYYCALETVMGGVGVWGQGTLVTVSS VL: SSYVLTQPPSVSVAPGKTARITCGGNNIGSKSVHWYQQKPGQAPVLVIYYDSDRPSGIPERFSGSNSGNTATLTISRVEAVDEADYYCQVWDSSSDYVFGGGTKLTVLA	0.0122
COVID19_P14_C12 (scFv, V domains shown) VH: QVQLVQSGAEVKKPGSSVKVSCKASGYTFTTYDINWVRQAPGQGLEWMGIIDPIGGTTNYAQKFQGRVTITADESTSTAYMELSSLRSEDTAVYYCARDTVGFGMDVWGQGTLVTVSS VL: SSYVLTQPPSVSVAPGKTARITCGGNNIGSKSVHWYQQKPGQAPVLVIYDDSDRPSGIPERFSGSNSGNTATLTISRVEAGDEADYYCQVWDSSSLYVFGGGTKLTVLA	0.000725
COVID19_P14_E01 (scFv, V domains shown) VH: QVQLVQSGAEVKKPGSSVKVSCKASGYTFTSYYMHWVRQAPGQGLEWMGGITPIFGTANYAQKFQGRVTITADESTSTAYMELSSLRSEDTAVYYCAVETVMGGMQMWGQGTLVTVSS VL: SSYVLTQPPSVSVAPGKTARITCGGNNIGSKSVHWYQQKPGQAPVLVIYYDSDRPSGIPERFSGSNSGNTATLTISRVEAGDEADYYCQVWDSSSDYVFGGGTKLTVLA	0.000819
COVID19_P01_E12 (scFv, V domains shown) VH: QVQLVQSGAEVKKPGSSVKVSCKASGYTFTTYDINWVRQAPGQGLEWMGWINPNSGGTNYAQKFQGRVTITADESTSTAYMELSSLRSEDTAVYYCARDTYWGGMDVWGQGTLVTVSS VL: SSYVLTQPPSVSVAPGKTARITCGGNNIGSKSVHWYQQKPGQAPVLVIYDDSDRPSGIPERFSGSNSGNTATLTISRVEAGDEADYYCQVWDSSSFYVFGGGTKLTVLA	0.0108
COVID19_P14_F05 (scFv, V domains shown) VH: QVQLVQSGAEVKKPGSSVKVSCKASGNTFSMFAINWVRQAPGQGLEWVGVINPIGSTTTYAQKFQGRVTITADESTSTAYMELSSLRSEDTAVYYCARDTVMGGMDVWGQGTLVTVSS VL: SSYVLTQPPSVSVAPGKTARITCGGNNIGSKSVHWYQQKPGQAPVLVIYYDSDRPSGIPERFSGSNSGNTATLTISRVEAGDEADYYCQVWVSSSDYVFGGGTKLTVLA	0.00152
COVID19_P14_B08 (scFv, V domains shown) VH: QVQLVQSGAEVKKPGSSVKVSCKASGYTFTSYYVHWVRQAPGQGLEWMGGILPILGTPHYAQKFQGRVTITADESTSTAYMELSSLRSEDTAVYYCALETVMGGMTAWGQGTLVTVSS VL: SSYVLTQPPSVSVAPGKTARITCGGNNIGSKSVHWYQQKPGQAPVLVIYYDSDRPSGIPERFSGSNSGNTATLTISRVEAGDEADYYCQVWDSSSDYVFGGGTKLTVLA	0.0115
